Provide the reported PBM binding z-score of each item.
- System: RARb homodimer (NR concentration 270 nM)
- protocol notes: PBM binding z-score (relative to random genomic background probes); higher = stronger binding; sequences stand for … in GC…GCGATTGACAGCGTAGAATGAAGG
One number for each entry.

Observe how each entry below is paired with its result.
PBM binding z-score recorded for this sequence, AAAATGAGGTTATTAAGATCAGGGAATTGCGGTC , is 0.725

Per the records, this sequence ( TCGATTAGTTGAAGGGCAACCGACGAGTCCGTTT ) has PBM binding z-score equal to 1.04

Measured PBM binding z-score of CTCGAAAGGTCGGTTGCGGTGAGTATACGGATAA : 1.91

PBM binding z-score for GATACAGGGTCAGCCAGAGGCCAGAGTATGGAAA is 3.47

In plain terms, AGTCAAAGTTCAAGACGAGGTAACGTAAAGCACG has a documented PBM binding z-score of 3.6

sequence GCTAGTCGGTCAGTAAAAGGTCACACACCGGTCG , PBM binding z-score observed: 5.59

Data point: TTACCAAGGTGAAGGTCGTTGCTCCCTCTGTAGA ; PBM binding z-score = 2.04

Given item TCTATTAGTTGAAGGCCAACCGACGAGTCCGTTT , the value recorded as its PBM binding z-score is 0.914

Memo: CGAACTAGGTGAGAACAGGACAGTGAAGGATGAT , reported PBM binding z-score: 0.34

The sequence GCGACTGGGGCAAAGCCGGTTACCATAAGGTTGG showed PBM binding z-score equal to 0.363

Below are 2 sequences. Give each one its PBM binding z-score.
1. TCTAGTTGGTCACGGAGGTCACAGACGACGGGTA
2. TCGAGTAGGTTAGTCTGGGCATTCAGCCAACATA

## Output
[4.64, -0.367]

Need PBM binding z-score for each of these sequences.
1. CAAACTTGGTCACCGGAAGGTCAAAGTCCGCATG
2. AATACAGGGTCACTAGGCCAGAATAGGTACGAAT
3. AGAACGAGGGCAACGAGTTGATAGCACGGGTGGC
4. GATACAAGGTCAAGGCCAGAGTACGCGTATTGAT
5. TCATGTAGGTAAAGGTGAAAGTCGAACGATATGA
6. CCAGACAGGTGAGAAGGTAACTCACCCTCGATTA
7. GCTGCTGGGTCAGGTTGGTCAGCTAACGGGTACG
8. CGTCCAAGGTCAAAGGTCGGTGAAGAGATGACGG

## Output
1: 4.11; 2: 3.3; 3: 0.919; 4: 4.63; 5: 1.61; 6: 0.972; 7: 2.57; 8: 4.52

Items follow; give PBM binding z-score for each.
1. TCGTGTAGATCAGCAGGTTAAGAAAGCTGGCCAA
2. AATACAGGGTCATCGTAGACCAGAGTACGCACAG
3. TGAATGAGGTTATGAGATCAGGGAACGTTGCAAA

## Output
1: -0.0746; 2: 3.31; 3: 0.266

Batch lookup, PBM binding z-score per entry.
1. TCTTGAAGATCAATAGAGGTTAAGAAAGTGCGCT
2. TAGCCTAGGTCCTGCGGGCCAGTATAGTGTCGGC
3. TCTTGGAGGACACGAAGGTCAGAGCTTTCCAGAG
4. CGTCCAAGGTCAAAGGACAGTGAAGAGATGACGG

## Output
1: 1.17; 2: -0.744; 3: 3.54; 4: 4.02

I have 8 sequences here; please give me PBM binding z-score for each one.
1. AGTGAAAGTTCATCTAGGTAACGTAAGATATGCT
2. TCTTGTAGATCAATAGAGGTTAAGTAAGTGCGCT
3. ATCGCAAGGTCGTGAGGTGAGTATACAGAAAGGC
4. GCGACTGGTGCATCAGCAGGTTACCATAACTTAA
5. CCGACTGAGGCAAGGTTACCATAACGCACAGCCA
6. ACTAGGAGGCCAAGGGTCACTCAAGATTAGTCCG
7. ACTAGCAGGCCAGGTTTGGGTCACTCAAACAAAG
8. CCTCGGAGGACAACAGGAGATCAGAGCTGCCAGA

## Output
1: 3.66; 2: 1.37; 3: 2.13; 4: 0.107; 5: 1.01; 6: 3.93; 7: 1.92; 8: 0.118

# batch size: 7; output PBM binding z-score per entry
1. AGAATGAGGTTAAGATCCGGGAAACAGAATACAT
2. ATCTCTAGGTACAGTTCAGTGAAAGATCGATAGA
3. TCTGCTAGGTTAGTTGGTCAGCTAACGAGCTGCC
4. ATACCAAGGTGATCGTGGGGTCGTTGATACTAAC
5. TCTCGGAGGACACGAATGTCAGAGCTTTCCAGAG
6. CGAACTAGGTCCGAACAGGACAGTGAAGGATGAT
7. TCATAGAGGTAAAGGTGAAAGTCGAACGATATGA

## Output
0.774
0.899
-0.0655
1.69
0.771
-0.462
1.69
